# TEST: RP, Waters ACQUITY UPLC BEH C18, 100 × 2.1 mm, 1.7 µm, 0.3 mL/min, estimated dead time 0.73 min; A: water + 0.1% formic acid, pH 3; B: methanol + 0.1% formic acid, pH 3; gradient (min/%B) 0/10 14/90 16/90 18/10
# CONDITION: stereoisomer not certain
Is LC retention time at least 10 min? Then MET. If not, NOT MET.

Use the examples below as a reference point.
[[record]]
molecule = "COC(=O)c1ccccc1S(=O)(=O)NC(=O)Nc1nc(C)nc(OC)n1"
cat = "NOT MET"

[[record]]
molecule = "COc1ccc(C(CN(C)C)C2(O)CCCCC2)cc1 (configuration not stated)"
cat = "NOT MET"

[[record]]
molecule = "CN1CCCC1c1cccnc1 (configuration not stated)"
cat = "NOT MET"

[[record]]
molecule = "Cc1c(Cl)cccc1Nc1ccccc1C(=O)O"
cat = "MET"


LC retention time >= 10 min for CCOP(=S)(NC(C)C)Oc1ccccc1C(=O)OC(C)C (configuration not stated) ?
MET

Has CCC(=O)C(CC(C)N(C)C)(c1ccccc1)c1ccccc1 (configuration not stated) a recorded LC retention time greater than or equal to 10 min?
MET

Is reported LC retention time greater than or equal to 10 min here: CC(C)OP(=O)(OC(C)C)SCc1ccccc1
MET

Would you say CCNC(C)Cc1ccc2c(c1)OCO2 (configuration not stated) shows LC retention time at minimum 10 min?
NOT MET

# check: LC retention time of Cc1cc(C2CC2)nc(Nc2ccccc2)n1 is greater than or equal to 10 min
MET

Does the molecule CC=C(C(=CC)c1ccc(O)cc1)c1ccc(O)cc1 have recorded LC retention time that is 10 min or more?
MET
